biological target: Solute carrier family 2, facilitated glucose transporter member 1 (Homo sapiens) (UniProt P11166); assay: ST_JUDE_LEISH: Cytotoxicity at 2uM final concentration against transgenic Leishmania Mexicana promastigotes LmGLUT1 that are glucose transport deficient and complemented with the human glucose transporter GLUT1. Activity is measured by DNA content using SYBR green in vitro; format: functional
Sequence (P11166 whole entry): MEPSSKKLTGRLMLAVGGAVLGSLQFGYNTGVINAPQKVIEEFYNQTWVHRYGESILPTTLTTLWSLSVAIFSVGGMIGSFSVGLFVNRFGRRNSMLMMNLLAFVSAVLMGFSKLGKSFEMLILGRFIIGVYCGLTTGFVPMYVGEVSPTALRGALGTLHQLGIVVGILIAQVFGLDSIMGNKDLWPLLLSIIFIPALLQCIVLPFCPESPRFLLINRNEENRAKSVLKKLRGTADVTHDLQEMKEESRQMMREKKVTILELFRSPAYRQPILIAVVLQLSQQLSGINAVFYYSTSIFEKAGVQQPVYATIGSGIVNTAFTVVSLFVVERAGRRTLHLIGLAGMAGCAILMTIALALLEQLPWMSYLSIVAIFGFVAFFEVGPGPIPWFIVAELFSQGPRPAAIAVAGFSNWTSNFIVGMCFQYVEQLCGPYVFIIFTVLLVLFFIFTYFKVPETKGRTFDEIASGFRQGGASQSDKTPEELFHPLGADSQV
Assign inhibition to each entry below.
One number for each entry, in %.

Record excerpt, results attached:
INSERT INTO assay_data (compound, reading) VALUES
  ('COc1c(C)[nH]c(C)c(-c2ccc(Oc3cccc(C(F)(F)F)c3)cc2)c1=O', 10.2),
  ('Cc1cc(=O)oc2c1ccc1oc(C(O)c3ccc(Cl)cc3)c(C)c12 (centres undefined)', -0.12),
  ('O=C1Nc2cccc3c2C1(CCCCCN1CCC(c2c[nH]c4ccncc24)CC1)CCC3 (centres undefined)', 1),
  ('CCCCCCCc1c(C)nc2cc(OC)ccc2c1O', 7.36),
  ('NC1CCN(c2cnn(Cc3cccc(NC(=O)Nc4ccc(-c5ccccc5)cc4)c3)c(=O)c2Cl)CC1', 1.64),
  ('CCCCCCCN1CCC(CC(=O)Nc2ccnc3ccc(OC)cc23)C(CC)C1 (centres undefined)', -2.12);

Batch request: inhibition for each of the following compounds.
1. Cc1cccc2nc(-c3cccc(-c4cccc(NC(=O)c5cccnc5)c4)c3)[nH]c12
2. NC(=O)c1cccc(C(=O)Nc2ccc(-c3cccc(-c4nc5cc(C(F)(F)F)ccc5[nH]4)c3)cc2)c1
3. CC(=O)Nc1sc(C)c(C)c1CN1CCc2ccccc2C1
4. CC(C)(C)c1ccc(CNCC(C)(C)c2nc(-c3ccnc(N)n3)c(-c3ccc(Cl)c(O)c3)[nH]2)cc1
5. CCOc1ccc(NC(C)=O)c(O)c1
6. COc1ccc2c(c1)OC(C)(C)CC2=NOS(=O)(=O)c1ccc(C)cc1
7. O=C(Nc1ccccc1)c1nn(CCCN2CCC(N3CCCC3)CC2)cc1-c1ccc(Cl)c(Cl)c1
8. COc1cc(NC(=O)c2sc(-c3ccc(Cl)cc3)cc2NC(=O)N2CCCC2)ccc1OCCN1CCCC1

Result:
1: 2.26; 2: 0.39; 3: -0.17; 4: 5.04; 5: 5.79; 6: 2.81; 7: 2.06; 8: 2.35

====

target: Solute carrier family 2, facilitated glucose transporter member 1 (Homo sapiens) (UniProt P11166); assay: ST_JUDE_LEISH: Cytotoxicity at 2uM final concentration against transgenic Leishmania Mexicana promastigotes LmGLUT1 that are glucose transport deficient and complemented with the human glucose transporter GLUT1. Activity is measured by DNA content using SYBR green in vitro; format: functional
Assign inhibition to each entry below.
Numbers only, in %.

Record excerpt, results attached:
INSERT INTO measurements (compound, value_type, reading) VALUES
  ('COc1ccccc1C1CC(c2ccccc2)=NN1C(=O)c1ccco1 (centres undefined)', 'inhibition', -0.28),
  ('Cc1ccc(-n2c(C)nc3c(Nc4ccc(-c5ccncc5)cc4)ncnc32)c(C)c1', 'inhibition', 91.7),
  ('Cc1sc(CNCCCNc2cc(=O)c3ccccc3[nH]2)c(I)c1C', 'inhibition', 3.11);

API: the following record is the query input.
// inhibition lookup, compound = Cn1cncc1C(=O)Nc1cccc(-c2cccc(-c3nc4ccccc4[nH]3)c2)c1 , result: 4.71

====

biological target: Glucose transporter (Leishmania mexicana); assay: ST_JUDE_LEISH: Cytotoxicity at 2uM final concentration against transgenic Leishmania Mexicana promastigotes LmGT2 that are glucose transport deficient and complemented with the L. Mexicana glucose transporter 2. Activity is measured by DNA content using SYBR green in vitro; assay type: functional
value.type: inhibition (%)
Numbers only, in %.

Record excerpt, results attached:
INSERT INTO results (input_smiles, reading) VALUES
  ('Cc1cc(CNCCCCCNCc2ccc(Cl)cc2)ccc1O', 2.91),
  ('CCCCCCCc1c2c(C)c(C(=O)OCC)nc-2cc2n1CC(C)=C2C', 3.09);

API: the following record is the query input.
// inhibition lookup, molecule = CC(C)CCN1CCCN(Cc2ccc(C(=O)NCc3ccc(Cl)cc3)cc2)CC1 , result: -0.7

====

Assign inhibition to each entry below.
molecular target: Glucose transporter (Leishmania mexicana) (UniProt O61059); assay: ST_JUDE_LEISH: Cytotoxicity at 2uM final concentration against transgenic Leishmania Mexicana promastigotes LmGT2 that are glucose transport deficient and complemented with the L. Mexicana glucose transporter 2. Activity is measured by DNA content using SYBR green in vitro; type: functional
Reply with a number, then the unit it belongs to.

Record excerpt, results attached:
INSERT INTO assay_data (molecule, value_type, reading) VALUES
  ('CCCCOC(=O)c1ccc(NC(=O)Nc2ccc(Cn3ncc(N4CCCNCC4)c(Cl)c3=O)cc2)cc1', 'inhibition', '7.4%'),
  ('CC(=O)Nc1nc(C(=O)Nc2cccc(-c3ccc4c(cnn4CC4CC4)c3)c2)cs1', 'inhibition', '2.13%');

Batch request: inhibition for each of the following molecules.
1. COc1cccc(C23NC(=Nc4nc5ccccc5[nH]4)NC2(c2cccc(OC)c2)NC(=Nc2nc4ccccc4[nH]2)N3)c1 (centres undefined)
2. O=C(Nc1cccc(-c2ccc(CN3CCNCC3)cc2)c1)c1cccc(Cl)c1
3. CCn1c(SCc2ccc(F)cc2)nc2sc3c(c2c1=O)CCN(C)C3
4. Cc1cccc2nc(-c3ccc(-c4ccc(NC(=O)C(=O)c5cccn5C)cc4)cc3)[nH]c12
5. Cc1ccccc1C1CCN(C2CCC(NC(=O)/C=C/c3cc(F)ccc3C(F)(F)F)CC2)CC1 (centres undefined)
6. CC(C)CCN1CCCN(Cc2cccc(NC(=O)c3cc4ccccc4s3)c2)CC1

Result:
["3.29%", "-2.68%", "0.64%", "0.5%", "1.99%", "2.29%"]

Batch request: inhibition for each of the following molecules.
1. Cc1ccccc1C1CCN(C2CCC(NC(=O)/C=C/c3c[nH]c4ccccc34)CC2)CC1 (centres undefined)
2. O=C(c1cc2ccccc2o1)N1CCc2cc3nccc(N4CCN5CCC[C@H]5C4)c3cc21

Result:
1: -0.41%; 2: 6.35%

Batch request: inhibition for each of the following molecules.
1. Cc1cccc2nc(-c3cccc(-c4ccc(NC(=O)Nc5ccsc5)cc4)c3)[nH]c12
2. CCc1c(C(=O)NC2CCC(N3CCC(c4ccccc4OC)CC3)CC2)[nH]c2ccc(Br)cc12 (centres undefined)
3. COc1ccc(-c2ccc(NC(=O)c3cccc(Cl)c3)cc2)cc1CN1CCN(C)CC1
4. Cc1cccc2nc(-c3ccc(-c4ccc(NC(=O)CN5CCN(C)CC5)cc4)s3)[nH]c12
5. COc1ccc2c(c1)ncn2-c1cc(OCc2ccncc2Br)c(C(N)=O)s1
6. N#Cc1ccc(Cn2ccc3c4c(N)nc(N)nc4ccc32)cc1
7. CS(=O)(=O)c1ccc(-n2nc(C(F)(F)F)cc2-c2ccc(C=NOCC(=O)O)o2)cc1

Result:
1. 2.53%
2. -0.91%
3. 3.15%
4. -1.35%
5. 2.35%
6. 77.7%
7. -0.38%

====

target: Solute carrier family 2, facilitated glucose transporter member 1 (Homo sapiens) (UniProt P11166); test: ST_JUDE_LEISH: Cytotoxicity at 2uM final concentration against transgenic Leishmania Mexicana promastigotes LmGLUT1 that are glucose transport deficient and complemented with the human glucose transporter GLUT1. Activity is measured by DNA content using SYBR green in vitro; type: functional
Assign inhibition to each entry below.
Answers are plain numbers, in %.

Record excerpt, results attached:
INSERT INTO assay_data (molecule, value_type, unit_abbreviation, reading) VALUES
  ('Cc1ccc(C(NC(=O)c2ccccc2)c2ccc3cccnc3c2O)cc1 (stereo unspecified)', 'inhibition', '%', 4.29),
  ('FC(F)(F)c1ccc2[nH]c(-c3ccc(-c4cccc(CN5CCCCC5)c4)cc3)nc2c1', 'inhibition', '%', 2.89),
  ('COc1ccc(CCNCCCCCCNCCc2ccc(-c3ccccc3)cc2)cc1OC', 'inhibition', '%', 92.8),
  ('Cc1cccc2nc(-c3ccc(-c4cccc(NC(=O)NCc5ccccc5)c4)cc3)[nH]c12', 'inhibition', '%', 0.35),
  ('O=C(c1ccc(Cl)cc1)N1CCCC(C(=O)N(Cc2nnc(-c3ccccc3Cl)o2)C2CC2)C1 (stereo unspecified)', 'inhibition', '%', 0.11),
  ('Cc1ccc(-c2nn3c(O)c4c(nc3c2C)CCCC4)cc1', 'inhibition', '%', -0.48);

Batch request: inhibition for each of the following molecules.
1. CN(CCC1CCN(C(=O)/C=C/c2ccc(Cl)c(Cl)c2)CC1)C1CCC(c2c[nH]c3ccccc23)CC1 (stereo unspecified)
2. N#Cc1ccc2c(c1)CCN(CCC1CCC(NC(=O)c3cc4ccc(Cl)cc4[nH]3)CC1)C2 (stereo unspecified)
3. O=[N+]([O-])c1cccc(NC(=S)N2CCCN(Cc3ccc(C(F)(F)F)cc3)CC2)c1

Result:
[7, 1.73, 2.92]

Batch request: inhibition for each of the following molecules.
1. Cc1cccc2nc(-c3ccc(-c4cccc(CN5CCCCC5)c4)s3)[nH]c12
2. O=C(Nc1ccccc1C(F)(F)F)Nc1nn(Cc2c(F)cccc2Cl)cc1Br

Result:
[5.63, 5.53]

Values from ChEMBL document CHEMBL3433997
